value-kind: melting point

Before answering, review these 2 worked examples.
Fc1ccc(Oc2ncccc2OC[C@@H]2CCCNC2)cc1.O=C(O)/C=C/C(=O)O	172 to 173 °C
Fc1ccc(Oc2ncccc2OC[C@H]2CCCNC2)cc1Cl.O=C(O)/C=C/C(=O)O	143 to 144 °C (dec.)

Please give the measured melting point for this molecule: Fc1ccc(Oc2ncccc2OC[C@@H]2CCCNC2)cc1F.O=C(O)/C=C/C(=O)O
130 to 131 °C

# get_value(readout='melting point', item= Cc1cc(Oc2ncccc2OC[C@H]2CCCNC2)ccc1F.O=C(O)/C=C/C(=O)O )
136 to 138 °C

# input molecule: Fc1cccc(F)c1Oc1ncccc1OC[C@H]1CCCNC1.O=C(O)/C=C/C(=O)O ; wanted: its melting point
182 to 183 °C (dec.)

Give its melting point value. Item: Clc1cccc(Oc2ncccc2OC[C@H]2CCCNC2)c1.O=C(O)/C=C/C(=O)O
128 to 129 °C

For the molecule shown here, O=C(O)/C=C/C(=O)O.c1ccc(CCCOc2ncccc2OC[C@H]2CCCNC2)cc1 , give the reported melting point.
141 to 142 °C (dec.)

Look at this molecule and give its reported melting point. Fc1ccc(Oc2ncccc2OC[C@H]2CCCNC2)c(Cl)c1.O=C(O)/C=C/C(=O)O
189 to 190 °C (dec.)

###

# subject-of-test: human serotonin transporter (Homo sapiens)
# Sequence (P31645 whole entry): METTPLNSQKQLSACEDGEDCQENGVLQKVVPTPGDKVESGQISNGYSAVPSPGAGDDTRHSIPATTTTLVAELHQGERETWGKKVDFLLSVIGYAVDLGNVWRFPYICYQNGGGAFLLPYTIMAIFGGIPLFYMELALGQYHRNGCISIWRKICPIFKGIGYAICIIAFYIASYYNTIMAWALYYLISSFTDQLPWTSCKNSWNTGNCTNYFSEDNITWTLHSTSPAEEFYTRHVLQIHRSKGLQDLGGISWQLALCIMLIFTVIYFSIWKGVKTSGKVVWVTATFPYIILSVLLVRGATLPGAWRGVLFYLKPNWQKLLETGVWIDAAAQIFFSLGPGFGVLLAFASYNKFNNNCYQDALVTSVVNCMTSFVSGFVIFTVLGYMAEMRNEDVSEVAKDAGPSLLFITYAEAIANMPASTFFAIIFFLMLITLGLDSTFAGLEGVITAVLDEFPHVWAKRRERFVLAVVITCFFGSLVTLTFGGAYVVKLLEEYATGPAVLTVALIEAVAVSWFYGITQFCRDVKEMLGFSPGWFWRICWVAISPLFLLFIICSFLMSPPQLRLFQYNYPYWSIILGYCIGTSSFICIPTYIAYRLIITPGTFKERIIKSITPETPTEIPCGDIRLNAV
Where a name gives a salt, the structure may show the parent alone.
value-kind: Ki (µM)

Sample answers from the record:
Cc1ccc(Oc2nc(C)ccc2OC[C@H]2CCCNC2)cc1	0.159
Cc1ccc(OC[C@H]2CCCNC2)c(Oc2c(F)cc(F)cc2F)n1 [Example 44, hydrochloride]	0.082
O=C(O)/C=C/C(=O)O.c1ccc(COc2ncccc2OC[C@H]2CCCNC2)cc1	7.2
CCOc1ncccc1O[C@@H](CC)[C@H]1CCCNC1	0.705
Cc1cc(Oc2ncccc2OC[C@H]2CCCNC2)ccc1F.O=C(O)/C=C/C(=O)O	3.3

(P) COc1cc(C)ccc1Oc1nc(C)ccc1OC[C@H]1CCCNC1
(Q) Fc1ccc(Oc2ncccc2OC[C@H]2CCCNC2)cc1Cl.O=C(O)/C=C/C(=O)O
(R) CC[C@H](Oc1cccnc1OCC(C)C)[C@H]1CCCNC1
Rank items: key Ki, increasing. // format: requested-order list of labels
P, R, Q
(P: 0.17 µM, R: 0.35 µM, Q: 2.9 µM)

###

# subject-of-test: human norepinephrine transporter (Homo sapiens, UniProt P23975)
# Sequence (P23975 whole entry): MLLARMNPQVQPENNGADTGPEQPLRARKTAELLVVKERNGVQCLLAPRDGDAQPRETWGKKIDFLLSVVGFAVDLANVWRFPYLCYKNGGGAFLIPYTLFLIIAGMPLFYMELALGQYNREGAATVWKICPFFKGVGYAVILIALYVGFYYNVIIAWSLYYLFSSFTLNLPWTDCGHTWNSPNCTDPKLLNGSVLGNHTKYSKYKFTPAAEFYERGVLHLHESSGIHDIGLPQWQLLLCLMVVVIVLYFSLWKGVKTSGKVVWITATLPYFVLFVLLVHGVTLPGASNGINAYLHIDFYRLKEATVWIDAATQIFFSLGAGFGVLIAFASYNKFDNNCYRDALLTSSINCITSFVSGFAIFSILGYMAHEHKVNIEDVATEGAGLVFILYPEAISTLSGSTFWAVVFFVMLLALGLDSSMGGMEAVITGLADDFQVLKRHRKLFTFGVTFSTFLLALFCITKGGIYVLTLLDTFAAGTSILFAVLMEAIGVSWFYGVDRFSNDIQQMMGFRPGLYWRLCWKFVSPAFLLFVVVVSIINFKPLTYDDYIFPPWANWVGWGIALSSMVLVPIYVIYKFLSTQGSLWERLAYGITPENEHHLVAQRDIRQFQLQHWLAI
value-kind: Ki (nM)

Completed entries (count: 3):
COc1cc(C#N)ccc1Oc1ncccc1OC[C@H]1CCCNC1 [Example 62]	68
COc1ccc(Oc2nc(C)ccc2OC[C@H]2CCCNC2)cc1 [Example 6]	16
Cl.c1ccc(COc2ccccc2OC[C@H]2CCCNC2)cc1 [Example 99, hydrochloride]	11

(P) Cc1ccc(OC[C@H]2CCCNC2)c(Oc2ccc(Cl)cc2F)n1 [Example 23]
(Q) CCOc1ncccc1OC[C@H]1CCCNC1 [Example 79]
(R) CC(C)COc1ccccc1OCC1CCCNC1.Cl (stereo not shown) [Example 102, hydrochloride]
Ordering criterion: Ki; begin with the maximum. A ranking is expressed here by listing the labels in the requested order.
Q, R, P

###

Counter-ions that a name gives are not always drawn.
For human norepinephrine transporter (Homo sapiens, UniProt P23975), measured Ki is reported for the entries below.
value-kind: Ki (nM)

Cc1cccc(Oc2ncccc2OC[C@H]2CCCNC2)c1.O=C(O)/C=C/C(=O)O	6

(A) COc1cc(Cl)ccc1Oc1nc(C)ccc1OC[C@H]1CCCNC1
(B) Fc1ccc(Oc2ncccc2OC[C@H]2CCCNC2)cc1
(C) Cc1ccc(OC[C@H]2CCCNC2)c(Oc2c(F)cc(F)cc2F)n1 [Example 44, hydrochloride]
Order the items by recorded Ki; the first position goes to the largest value. Quick reminder: the answer is the labels in the order asked.
A, C, B
